GI50 by entry:
System: HOP-92
Assay: NCI tumour cell line growth inhibition, 48 h
Activity calls are given as the source filed them. Cut-off read from the data, not from the text of the source: active = GI50 up to about 1.1 µM and inactive = higher.

CCN(C(=N)C#N)c1ccccc1; > 100 µM (inactive)

Query string: GI50 lookup needed for `COC1=N[C@H](C(C)C)C(OC)=N[C@H]1Cc1ccc(C[C@@H]2N=C(OC)[C@@H](C(C)C)N=C2OC)s1` , thanks.
Result string: > 100 µM (inactive)

Query string: `C=CCn1c2ccccc2c2c(C)c3cnccc3c(C)c21` ?
Result string: 1.92 µM (inactive)

Query string: Again, but for `N/C(=N\O)N/N=C\c1c(O)cc(O)cc1O`
Result string: 54.8 µM (inactive)

Query string: Another compound to check: `CC(C)(C)c1cc(C(P(=O)(c2ccccc2)c2ccccc2)P(=O)(c2ccccc2)c2ccccc2)cc(C(C)(C)C)c1O`
Result string: 2.43 µM (inactive)

Query string: Further, for `CC(=O)N(O)Cc1ccccc1` ?
Result string: > 100 µM (inactive)
